concentration at 0.5 h values, listed per item
# Procedure summary: Tissue distribution study in rabbits after oral Panax notoginseng extract with or without Borneol
# Assay type: in vivo, New Zealand rabbits
# Details: New Zealand, rabbit, heart, po, 3 mL·kg^−1, 0.5 h, oral Panax notoginseng with Borneol, read-out: Concentration in heart
Number in ng/g, nothing else.

In: I would be grateful if you could share the reported concentration at 0.5 h for CC(C)=CCC[C@](C)(O[C@@H]1O[C@H](CO)[C@@H](O)[C@H](O)[C@H]1O)[C@H]1CC[C@]2(C)[C@@H]1[C@H](O)C[C@@H]1[C@@]3(C)CC[C@H](O)C(C)(C)[C@@H]3[C@@H](O[C@@H]3O[C@H](CO)[C@@H](O)[C@H](O)[C@H]3O[C@@H]3O[C@@H](C)[C@H](O)[C@@H](O)[C@H]3O)C[C@]12C [GRe, ginsenoside Re] .
Out: 2810

In: Repeat for the following compound: CC(C)=CCC[C@](C)(O[C@@H]1O[C@H](CO)[C@@H](O)[C@H](O)[C@H]1O)[C@H]1CC[C@]2(C)[C@@H]1[C@H](O)C[C@@H]1[C@@]3(C)CC[C@H](O)C(C)(C)[C@@H]3[C@@H](O[C@@H]3O[C@H](CO)[C@@H](O)[C@H](O)[C@H]3O)C[C@]12C [GRg1, ginsenoside Rg1]
Out: 22600

* * *

Collected concentration at 3 h values appear next to each entry.
# Procedure summary: Tissue distribution study in rabbits after oral Panax notoginseng extract with or without Borneol
# Assay type: in vivo, New Zealand rabbits
# Details: New Zealand, rabbit, brain, po, 3 mL·kg^−1, 3.0 h, oral Panax notoginseng, read-out: Concentration in brain
Give your result in ng/g as a bare value.

{"Compound": "CC(C)=CCC[C@](C)(O[C@@H]1O[C@H](CO)[C@@H](O)[C@H](O)[C@H]1O)[C@H]1CC[C@]2(C)[C@@H]1[C@H](O)C[C@@H]1[C@@]3(C)CC[C@H](O)C(C)(C)[C@@H]3[C@@H](O[C@@H]3O[C@H](CO)[C@@H](O)[C@H](O)[C@H]3O[C@@H]3O[C@@H](C)[C@H](O)[C@@H](O)[C@H]3O)C[C@]12C [GRe, ginsenoside Re]", "Endpoint value": 630}

Here is the next item to consider.
In: Return reported concentration at 3 h; argument: CC(C)=CCC[C@](C)(O[C@@H]1O[C@H](CO)[C@@H](O)[C@H](O)[C@H]1O)[C@H]1CC[C@]2(C)[C@@H]1[C@H](O)C[C@@H]1[C@@]3(C)CC[C@H](O)C(C)(C)[C@@H]3[C@@H](O[C@@H]3O[C@H](CO)[C@@H](O)[C@H](O)[C@H]3O)C[C@]12C [GRg1, ginsenoside Rg1]
Out: 570

* * *

# Procedure summary: Pharmacokinetics study in rabbits after oral Panax notoginseng extract with or without Borneol (plasma, SPE-HPLC-MS)
# Format: in vivo, New Zealand rabbits
# Details: New Zealand, rabbit, plasma, oral 3.0 mL·kg^−1 Panax notoginseng extract combined with Borneol, read-out: CL/F
Quantity measured: CL/F (L/h/kg)
Numbers only here, please. The scale is L/h/kg.

In: Item CC(C)=CCC[C@](C)(O[C@@H]1O[C@H](CO)[C@@H](O)[C@H](O)[C@H]1O)[C@H]1CC[C@]2(C)[C@@H]1[C@H](O)C[C@@H]1[C@@]3(C)CC[C@H](O)C(C)(C)[C@@H]3[C@@H](O[C@@H]3O[C@H](CO)[C@@H](O)[C@H](O)[C@H]3O[C@@H]3O[C@@H](C)[C@H](O)[C@@H](O)[C@H]3O)C[C@]12C [GRe, ginsenoside Re] has what recorded CL/F?
Out: 8.58

In: Thanks! And CC(C)=CCC[C@](C)(O[C@@H]1O[C@H](CO)[C@@H](O)[C@H](O)[C@H]1O)[C@H]1CC[C@]2(C)[C@@H]1[C@H](O)C[C@@H]1[C@@]3(C)CC[C@H](O)C(C)(C)[C@@H]3[C@@H](O[C@@H]3O[C@H](CO)[C@@H](O)[C@H](O)[C@H]3O)C[C@]12C [GRg1, ginsenoside Rg1] ?
Out: 7.14
